Value source: PubChem BioAssay AID1159580

# ASSAY_METHOD_TEXT: chemical genetic growth profiling, strain panel (AID 1159580);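 also: tested at 20 µM; growth read once vehicle control cultures reached saturation at 30 °C; 1 = growth at the plate median or of vehicle wells; lower values mean less growth of the strain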
# CONDITION_DETAILS: S. cerevisiae deletion strains, growth OD, locus YJL187C, strain SWE1 (second series), stronger effect = lower value
In all, about 5,500 compounds went through this assay and about 2,000 (36%) were called active. Another 18% or so got no clear call; they are omitted. Some of the results follow.
What normalized growth was measured for each of the following?
Form: value (number only, do not type unit).

Looking up Nc1ccc(C(=O)O)c(O)c1 (tested in a mixture with another compound) , I see its normalized growth listed as 1.01

// CSc1ccc2c(c1)C(N1CCN(C)CC1)Cc1ccccc1S2 (configuration not stated) : normalized growth value = 0.658

The reported normalized growth of the molecule CC(C)=CCc1c2c(c(O)c3c(=O)c(O)c(-c4ccccc4)oc13)C=CC(C)(C)O2 was 0.417

normalized growth measured on CC1=NCCc2c1[nH]c1cc(O)ccc21 = 0.991

Entry O=C1CCc2cc(OCCCCc3nnnn3C3CCCCC3)ccc2N1 , normalized growth reported as 1.01

Reported normalized growth for CC(=O)Nc1cccc(O)c1 was 1.02

Reported normalized growth of O=C(/C=C/c1ccccc1)c1ccc(O)cc1 : 0.697
